target: DNA gyrase (Staphylococcus aureus, UniProt P0A0K8+P20831); experiment: Inhibition of Staphylococcus aureus DNA gyrase assessed as relaxation of pBR322 DNA by supercoiling assay; type: protein-complex assay
Sequence (P0A0K8 whole entry): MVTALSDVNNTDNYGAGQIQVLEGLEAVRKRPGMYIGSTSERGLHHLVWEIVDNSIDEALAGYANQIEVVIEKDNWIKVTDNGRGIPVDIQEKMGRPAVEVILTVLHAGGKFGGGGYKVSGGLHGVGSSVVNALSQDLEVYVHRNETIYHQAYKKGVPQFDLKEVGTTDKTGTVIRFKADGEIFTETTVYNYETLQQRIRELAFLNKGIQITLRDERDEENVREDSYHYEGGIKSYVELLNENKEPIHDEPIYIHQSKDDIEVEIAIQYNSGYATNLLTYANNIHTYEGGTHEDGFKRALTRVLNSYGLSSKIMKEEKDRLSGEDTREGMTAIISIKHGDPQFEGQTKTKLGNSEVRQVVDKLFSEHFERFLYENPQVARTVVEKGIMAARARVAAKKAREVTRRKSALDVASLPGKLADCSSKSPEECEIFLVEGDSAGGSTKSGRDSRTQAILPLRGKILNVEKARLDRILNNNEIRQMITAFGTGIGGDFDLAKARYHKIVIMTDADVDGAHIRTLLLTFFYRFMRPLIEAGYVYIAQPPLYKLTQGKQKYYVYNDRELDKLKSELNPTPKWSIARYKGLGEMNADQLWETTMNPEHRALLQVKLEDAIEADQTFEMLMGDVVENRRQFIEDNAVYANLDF
Sequence (P20831 whole entry): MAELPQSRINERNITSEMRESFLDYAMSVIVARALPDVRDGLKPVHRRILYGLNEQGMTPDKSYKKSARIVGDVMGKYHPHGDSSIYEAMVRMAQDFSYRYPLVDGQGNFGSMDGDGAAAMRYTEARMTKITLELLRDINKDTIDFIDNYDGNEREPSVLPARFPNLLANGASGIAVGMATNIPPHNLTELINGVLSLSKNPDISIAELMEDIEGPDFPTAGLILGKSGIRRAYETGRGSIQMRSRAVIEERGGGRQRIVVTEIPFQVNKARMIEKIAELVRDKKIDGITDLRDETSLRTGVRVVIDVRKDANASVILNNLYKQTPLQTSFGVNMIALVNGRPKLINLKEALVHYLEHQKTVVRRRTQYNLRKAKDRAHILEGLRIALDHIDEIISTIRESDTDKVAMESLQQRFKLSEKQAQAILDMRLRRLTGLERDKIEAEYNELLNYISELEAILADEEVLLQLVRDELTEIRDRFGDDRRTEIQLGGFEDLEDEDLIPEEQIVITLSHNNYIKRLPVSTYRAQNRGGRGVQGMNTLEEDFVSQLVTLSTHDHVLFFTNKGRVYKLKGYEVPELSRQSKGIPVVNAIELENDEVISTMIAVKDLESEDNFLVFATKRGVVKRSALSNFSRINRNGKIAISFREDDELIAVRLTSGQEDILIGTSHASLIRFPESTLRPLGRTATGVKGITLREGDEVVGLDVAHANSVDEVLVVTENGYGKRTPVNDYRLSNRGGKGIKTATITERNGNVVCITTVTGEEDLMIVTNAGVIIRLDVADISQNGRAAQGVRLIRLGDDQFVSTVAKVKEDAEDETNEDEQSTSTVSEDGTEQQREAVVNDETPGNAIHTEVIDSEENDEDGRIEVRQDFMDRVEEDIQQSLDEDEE
parameter_measured: IC50 (µM)
The reply should contain only the number, in µM.

# count of solved cases: 2
compound_smiles: COc1cc2c(cc1OCCCC(=O)Nc1cc(NC(=O)c3ccc4sccc4c3)n(C)c1)N=C[C@@H]1CCCN1C2=O
number: 1.62
--
compound_smiles: COc1cc2c(cc1OCCCC(=O)Nc1cc(C(=O)Nc3ccc4occc4c3)n(C)c1)N=C[C@@H]1CCCN1C2=O
number: 2.9

Memo: COc1cc2c(cc1OCCCC(=O)Nc1cc(C(=O)Nc3ccc4sccc4c3)n(C)c1)N=C[C@@H]1CCCN1C2=O , reported IC50: 3.89

These data points were gathered from ChEMBL document CHEMBL5233247.
